As shown below, each of these molecules has a reported log10 MIC value.
# Test system: Escherichia coli
# assay-text: Antibacterial activity against Escherichia coli isolate 210737 after 18 hrs by CLSI broth microdilution method
# Assay type: functional
# reported-conditions: isolate 210737, 18 h
readout-kind: log10 MIC (log10 of the value in µg/mL)

1. CC(C)C(O/N=C(\C(=O)N[C@@H]1C(=O)N(S(=O)(=O)O)[C@@H]1COC(N)=O)c1csc(N)n1)c1cc(=O)c(O)cn1O (some centres undefined) = -0.60
2. CC(C)C(O/N=C(\C(=O)NC1C(=O)N(S(=O)(=O)O)C12CCCC2)c1csc(N)n1)c1cc(=O)c(O)cn1O (centres undefined) = -0.30
3. CC(C)C(O/N=C(\C(=O)NC1C(=O)N(S(=O)(=O)O)C12CCC2)c1csc(N)n1)c1cc(=O)c(O)cn1O (centres undefined) = 0.60
4. CC(C)C(O/N=C(\C(=O)NC1C(=O)N(S(=O)(=O)O)C12CCCCC2)c1csc(N)n1)c1cc(=O)c(O)cn1O (centres undefined) = 1.20
5. CC(=O)OC[C@@H]1[C@H](NC(=O)/C(=N\OC(c2cc(=O)c(O)cn2O)C(C)C)c2csc(N)n2)C(=O)N1S(=O)(=O)O (some centres undefined) = -0.30
6. CC(C)C(O/N=C(\C(=O)N[C@@H]1C(=O)N(S(=O)(=O)O)[C@@H]1CCl)c1csc(N)n1)c1cc(=O)c(O)cn1O (some centres undefined) = 0.00
7. CC(C)C(O/N=C(\C(=O)N[C@@H]1C(=O)N(S(=O)(=O)O)[C@@H]1COS(=O)(=O)O)c1csc(N)n1)c1cc(=O)c(O)cn1O (some centres undefined) = 0.30
8. CC(C)C(O/N=C(\C(=O)NC1C(=O)N(S(=O)(=O)O)C12CCOCC2)c1csc(N)n1)c1cc(=O)c(O)cn1O (centres undefined) = 0.00
9. CC(C)C(O/N=C(\C(=O)N[C@@H]1C(=O)N(S(=O)(=O)O)[C@@H]1CSc1nnnn1C)c1csc(N)n1)c1cc(=O)c(O)cn1O (some centres undefined) = -0.30
10. CC(C)C(O/N=C(\C(=O)N[C@@H]1C(=O)N(S(=O)(=O)O)[C@@H]1CSc1nc2ccccc2o1)c1csc(N)n1)c1cc(=O)c(O)cn1O (some centres undefined) = 0.00
11. CC(C)C(O/N=C(\C(=O)N[C@@H]1C(=O)N(S(=O)(=O)O)[C@@H]1CN1CCNCC1)c1csc(N)n1)c1cc(=O)c(O)cn1O (some centres undefined) = 0.00
